Target: UniProt P21730
Assay: Inhibition of [125I]C5a binding to C5a anaphylatoxin chemotactic receptor of human neutrophil membrane preparations at 30 uM.
measurement_name: inhibition (%)
Supply the numeric figure in %, leaving out any unit text.

Reference set (5 entries):
N=C(N)NCCC[C@H]1NC(=O)N([C@H](CC2CCCCC2)C(=O)N2CCC3(CC2)CC(=O)c2ccccc23)C1=O : 58
N=C(N)NCCC[C@H]1NC(=O)N([C@H](CC2CCC(C3CCCCC3)CC2)C(=O)N2CCC3(CCc4ccccc43)CC2)C1=O (stereo partly specified) : 26
CCC[C@H](C(=O)N1CCC2(CCc3ccccc32)CC1)N1C(=O)N[C@H](CCCN=C(N)N)C1=O : 63
N=C(N)NCCC[C@H]1NC(=O)N([C@H](Cc2ccc3ccccc3c2)C(=O)N2CCC3(CCc4ccccc43)CC2)C1=O : 67
CC(C)[C@H](C(=O)N1CCC2(CCc3ccccc32)CC1)N1C(=O)N[C@H](CCCN=C(N)N)C1=O : 70

Kindly review the next compound as well.
What value of measured inhibition is listed for N=C(N)NCCC[C@H]1NC(=O)N(C(Cc2ccccc2)C(=O)N2CCC3(CCc4ccccc43)CC2)C1=O (stereo partly specified) ?
60

###

Target: UniProtKB P21730
Sequence (P21730 whole entry): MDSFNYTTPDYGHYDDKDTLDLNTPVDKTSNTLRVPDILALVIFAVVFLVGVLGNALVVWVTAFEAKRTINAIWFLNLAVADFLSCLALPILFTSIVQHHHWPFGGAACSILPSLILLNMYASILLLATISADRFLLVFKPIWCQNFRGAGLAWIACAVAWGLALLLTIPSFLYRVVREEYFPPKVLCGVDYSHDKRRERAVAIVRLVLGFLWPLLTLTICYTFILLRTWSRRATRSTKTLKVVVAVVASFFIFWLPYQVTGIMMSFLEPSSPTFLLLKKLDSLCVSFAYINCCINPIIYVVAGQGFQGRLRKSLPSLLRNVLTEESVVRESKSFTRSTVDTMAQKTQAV
Test: Tested for the ability to compete with [125I]-CO13 ([125I]-Y-F-K-A-Cha-G-L-dF-R) for binding to C5a anaphylatoxin chemotactic receptor from human neutrophil membrane preparations
pIC50 listing for selected compounds.
To interpret pIC50, take it as minus log10 of a concentration measured in moles per litre.

CC(C)[C@H](C(=O)N1CCC2(CCc3ccccc32)CC1)N1C(=O)N[C@H](CCCN=C(N)N)C1=O : 5.92

What value of measured pIC50 is listed for N=C(N)NCCC[C@H]1NC(=O)N([C@H](Cc2ccccc2)C(=O)N2CCC3(CCc4ccccc43)CC2)C1=O ?
6.10

Cool, now N=C(N)NCCC[C@H]1NC(=O)N([C@H](CC2CCCCC2)C(=O)N2CCC(c3ccccc3)CC2)C1=O
7.52

Cool, now Cc1ccc(N2CCN(C(=O)[C@@H](CC3CCCCC3)N3C(=O)N[C@H](CCCN=C(N)N)C3=O)CC2)c(C)c1
7.22

Cool, now N=C(N)NCCC[C@H]1NC(=O)N([C@H](CC2CCC(C3CCCCC3)CC2)C(=O)N2CCC3(CCc4ccccc43)CC2)C1=O (stereo partly drawn)
5.30

Cool, now N=C(N)NCCC[C@@H]1NC(=O)N([C@H](Cc2ccccc2)C(=O)N2CCC3(CCc4ccccc43)CC2)C1=O
5.40

Cool, now N=C(N)NCCC[C@H]1NC(=O)N([C@H](CC2CCCCC2)C(=O)N2CCC3(CC2)CC(=O)c2ccccc23)C1=O
5.82

Cool, now N=C(N)NCCC[C@H]1NC(=O)N([C@H](Cc2cccc3ccccc23)C(=O)N2CCC3(CCc4ccccc43)CC2)C1=O
4.96

###

inhibition listing for selected compounds.
Molecular target: C5a anaphylatoxin chemotactic receptor 1 (Homo sapiens) (UniProt P21730)
Sequence (whole entry): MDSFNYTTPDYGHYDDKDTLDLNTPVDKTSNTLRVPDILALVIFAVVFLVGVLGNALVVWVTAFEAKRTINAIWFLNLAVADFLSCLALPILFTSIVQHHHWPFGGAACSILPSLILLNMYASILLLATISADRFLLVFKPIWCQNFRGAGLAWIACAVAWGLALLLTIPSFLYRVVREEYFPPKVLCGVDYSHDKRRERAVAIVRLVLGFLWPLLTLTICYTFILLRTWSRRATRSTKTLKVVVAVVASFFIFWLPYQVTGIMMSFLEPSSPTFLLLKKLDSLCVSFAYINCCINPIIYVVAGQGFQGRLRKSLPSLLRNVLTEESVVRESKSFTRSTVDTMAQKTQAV
Experiment: Inhibition of [125I]C5a binding to C5a anaphylatoxin chemotactic receptor of human neutrophil membrane preparations at 30 uM.
Supply the numeric figure in %, leaving out any unit text.

Reference set (3 entries):
N=C(N)NCCC[C@H]1NC(=O)N([C@@H](Cc2ccccc2)C(=O)N2CCC3(CCc4ccccc43)CC2)C1=O : 3
N=C(N)NCCC[C@H]1NC(=O)N([C@H](CC2CCCCC2)C(=O)N2CCN(c3ccccc3)CC2)C1=O : 66
CSCC[C@H](C(=O)N1CCC2(CCc3ccccc32)CC1)N1C(=O)N[C@H](CCCN=C(N)N)C1=O : 57

What value of measured inhibition is listed for N=C(N)NCCC[C@H]1NC(=O)N([C@H](CC(=O)O)C(=O)N2CCC3(CCc4ccccc43)CC2)C1=O ?
0

###

Target: C5a anaphylatoxin chemotactic receptor 1 (Homo sapiens, UniProt P21730)
Test: Tested for its ability to compete with [125I]C5a for binding to C5a anaphylatoxin chemotactic receptor of human neutrophil membrane preparations
measurement_name: pIC50
To interpret pIC50, take it as minus log10 of a concentration measured in moles per litre.

Reference set (5 entries):
N=C(N)NCCC[C@H]1NC(=O)N([C@H](CC2CCCCC2)C(=O)N2CCC(c3ccccc3)CC2)C1=O : 6.40
N=C(N)NCCC[C@H]1NC(=O)N([C@H](Cc2ccc(-c3ccccc3)cc2)C(=O)N2CCC3(CCc4ccccc43)CC2)C1=O : 5.64
Cc1ccccc1N1CCN(C(=O)[C@@H](CC2CCCCC2)N2C(=O)N[C@H](CCCN=C(N)N)C2=O)CC1 : 6.46
N=C(N)NCCC[C@H]1NC(=O)N([C@H](Cc2c[nH]c3ccccc23)C(=O)N2CCC3(CCc4ccccc43)CC2)C1=O : 5.30
CC[C@@H](C)[C@H](C(=O)N1CCC2(CCc3ccccc32)CC1)N1C(=O)N[C@H](CCCN=C(N)N)C1=O : 5.92

Kindly review the next compound as well.
What value of measured pIC50 is listed for Cc1cccc(C)c1N1CCN(C(=O)[C@@H](CC2CCCCC2)N2C(=O)N[C@H](CCCN=C(N)N)C2=O)CC1 ?
6.66

###

Biological target: UniProt:P21730
Assay: Tested for the ability to compete with [125I]-CO13 ([125I]-Y-F-K-A-Cha-G-L-dF-R) for binding to C5a anaphylatoxin chemotactic receptor from human neutrophil membrane preparations
measurement_name: pIC50
To interpret pIC50, take it as minus log10 of a concentration measured in moles per litre.

N=C(N)NCCC[C@H]1NC(=O)N([C@H](Cc2ccc(F)cc2)C(=O)N2CCC3(CCc4ccccc43)CC2)C1=O : 6.64
Cc1cccc(C)c1N1CCN(C(=O)[C@@H](CC2CCCCC2)N2C(=O)N[C@H](CCCN=C(N)N)C2=O)CC1 : 7.40
CC[C@@H](C)[C@H](C(=O)N1CCC2(CCc3ccccc32)CC1)N1C(=O)N[C@H](CCCN=C(N)N)C1=O : 6.70
N=C(N)NCCC[C@H]1NC(=O)N(C(CCc2ccccc2)C(=O)N2CCC3(CCc4ccccc43)CC2)C1=O (stereo partly drawn) : 5.52
N=C(N)NCCC[C@H]1NC(=O)N([C@H](CC2CCCCC2)C(=O)N2CCN(c3ccccc3)CC2)C1=O : 6.00

What value of measured pIC50 is listed for N=C(N)NCCC[C@H]1NC(=O)N([C@H](Cc2ccc(O)cc2)C(=O)N2CCC3(CCc4ccccc43)CC2)C1=O ?
5.40

Cool, now N=C(N)NCCCC[C@H]1NC(=O)N([C@H](CC2CCCCC2)C(=O)N2CCC3(CCc4ccccc43)CC2)C1=O
6.52

Cool, now N=C(N)NCCC[C@H]1NC(=O)N([C@H](Cc2c[nH]c3ccccc23)C(=O)N2CCC3(CCc4ccccc43)CC2)C1=O
6.35

###

Target: C5a anaphylatoxin chemotactic receptor 1 (Homo sapiens)
Experiment: Tested for the ability to compete with [125I]-CO13 ([125I]-Y-F-K-A-Cha-G-L-dF-R) for binding to C5a anaphylatoxin chemotactic receptor from human neutrophil membrane preparations
measurement_name: pIC50
To interpret pIC50, take it as minus log10 of a concentration measured in moles per litre.

Reference set (3 entries):
N=C(N)NCCC[C@H]1NC(=O)N([C@H](CC2CCCCC2)C(=O)N2CCC3(CCc4ccccc43)CC2)C1=O : 7.60
Cc1ccccc1N1CCN(C(=O)[C@@H](CC2CCCCC2)N2C(=O)N[C@H](CCCN=C(N)N)C2=O)CC1 : 7.40
N=C(N)NCCC[C@H]1NC(=O)N([C@H](Cc2ccc3ccccc3c2)C(=O)N2CCC3(CCc4ccccc43)CC2)C1=O : 5.70

What value of measured pIC50 is listed for CSCC[C@H](C(=O)N1CCC2(CCc3ccccc32)CC1)N1C(=O)N[C@H](CCCN=C(N)N)C1=O ?
5.47

Cool, now CC(C)C[C@H](C(=O)N1CCC2(CCc3ccccc32)CC1)N1C(=O)N[C@H](CCCN=C(N)N)C1=O
6.35

Cool, now NCCCC[C@H]1NC(=O)N([C@H](CC2CCCCC2)C(=O)N2CCC3(CCc4ccccc43)CC2)C1=O
5.40

Cool, now CCC[C@H](C(=O)N1CCC2(CCc3ccccc32)CC1)N1C(=O)N[C@H](CCCN=C(N)N)C1=O
5.52

Cool, now N=C(N)NCCC[C@H]1NC(=O)N([C@H](CC2CCCCC2)C(=O)N2CCC3(C=Cc4ccccc43)CC2)C1=O
6.52
